Here the recorded ADCC cytotoxic activity (51Cr release) on HEC-1-A is given for each entry.
target or system: T1, CAPRIN-1 protein expressed on the membrane surface of human cancer cells (human, UniProt Q14444 2-709)
T1 sequence (looked up): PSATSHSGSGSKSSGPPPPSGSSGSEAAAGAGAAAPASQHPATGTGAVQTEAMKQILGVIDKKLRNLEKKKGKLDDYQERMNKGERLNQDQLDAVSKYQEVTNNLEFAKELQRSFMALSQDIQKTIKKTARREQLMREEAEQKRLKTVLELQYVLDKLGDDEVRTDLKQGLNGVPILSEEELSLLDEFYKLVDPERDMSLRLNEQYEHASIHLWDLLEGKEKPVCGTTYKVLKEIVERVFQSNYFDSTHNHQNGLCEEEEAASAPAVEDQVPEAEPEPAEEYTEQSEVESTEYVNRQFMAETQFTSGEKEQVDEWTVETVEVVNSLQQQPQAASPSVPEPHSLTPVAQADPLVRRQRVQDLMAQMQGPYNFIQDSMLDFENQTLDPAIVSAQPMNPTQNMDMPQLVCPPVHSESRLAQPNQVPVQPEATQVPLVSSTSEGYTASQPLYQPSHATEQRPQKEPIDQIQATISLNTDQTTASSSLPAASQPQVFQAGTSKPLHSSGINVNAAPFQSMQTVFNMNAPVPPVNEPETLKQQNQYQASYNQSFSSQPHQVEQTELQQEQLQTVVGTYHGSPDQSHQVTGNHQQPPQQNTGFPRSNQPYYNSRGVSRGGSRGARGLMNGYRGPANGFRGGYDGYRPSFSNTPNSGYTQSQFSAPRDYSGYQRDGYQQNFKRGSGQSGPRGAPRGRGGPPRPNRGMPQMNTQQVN
assay name: cell-based or functional assay
reported property: ADCC cytotoxic activity (51Cr release) on HEC-1-A

binder | measured result
humanized antibody #7 (antibody, V domains shown) VH: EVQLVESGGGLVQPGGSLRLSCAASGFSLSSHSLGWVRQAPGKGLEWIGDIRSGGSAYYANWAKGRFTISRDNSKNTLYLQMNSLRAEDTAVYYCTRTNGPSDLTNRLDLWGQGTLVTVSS VL: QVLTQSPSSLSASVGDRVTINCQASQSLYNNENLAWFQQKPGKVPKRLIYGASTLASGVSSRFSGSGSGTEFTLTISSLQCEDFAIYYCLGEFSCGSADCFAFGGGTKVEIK | ≥ 52%
humanized antibody #4 (antibody, V domains shown) VH: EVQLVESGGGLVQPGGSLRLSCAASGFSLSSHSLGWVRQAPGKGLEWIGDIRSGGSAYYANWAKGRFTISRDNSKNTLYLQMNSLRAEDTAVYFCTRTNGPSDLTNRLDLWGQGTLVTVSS VL: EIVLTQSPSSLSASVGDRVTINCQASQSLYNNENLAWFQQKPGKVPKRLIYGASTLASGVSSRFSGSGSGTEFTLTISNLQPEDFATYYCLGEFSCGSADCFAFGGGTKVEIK | ≥ 45%
humanized antibody #1 (antibody, V domains shown) VH: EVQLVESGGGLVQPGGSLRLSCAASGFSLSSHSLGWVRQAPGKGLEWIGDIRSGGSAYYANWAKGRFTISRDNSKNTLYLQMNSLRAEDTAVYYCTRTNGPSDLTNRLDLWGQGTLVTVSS VL: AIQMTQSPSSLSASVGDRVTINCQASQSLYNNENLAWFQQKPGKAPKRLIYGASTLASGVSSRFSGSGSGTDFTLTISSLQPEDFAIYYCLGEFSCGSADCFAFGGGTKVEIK | ≥ 40%
humanized antibody #8 (antibody, V domains shown) VH: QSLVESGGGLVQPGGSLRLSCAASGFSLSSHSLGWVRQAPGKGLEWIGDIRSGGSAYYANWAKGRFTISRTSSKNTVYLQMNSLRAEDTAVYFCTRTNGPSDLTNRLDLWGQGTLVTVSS VL: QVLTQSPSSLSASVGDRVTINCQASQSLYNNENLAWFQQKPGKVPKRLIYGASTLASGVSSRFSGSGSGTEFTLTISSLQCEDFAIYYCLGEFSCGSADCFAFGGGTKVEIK | ≥ 40%
